- Test system: EG A (cellulase)
- ASSAY_NOTES: Coupled cellobiose oxidase/DCPIP assay for cellulases
- Format: biochemical
- SETUP_CONDITIONS: reduced cellodextrin substrate
OBSERVATION_TYPE: kcat (s⁻¹)
Give the value, in units of s⁻¹, as a plain number.

Use these answered entries as a reference point.
>  <ENTRY_SMILES>
OC[C@@H](O)[C@@H](O[C@@H]1O[C@H](CO)[C@@H](O[C@@H]2O[C@H](CO)[C@@H](O[C@@H]3O[C@H](CO)[C@@H](O)[C@H](O)[C@H]3O)[C@H](O)[C@H]2O)[C@H](O)[C@H]1O)[C@H](O)[C@@H](O)CO

>  <UNIT_SPEC>
s⁻¹

>  <kcat>
0

$$$$
>  <ENTRY_SMILES>
OC[C@@H](O)[C@@H](O[C@@H]1O[C@H](CO)[C@@H](O[C@@H]2O[C@H](CO)[C@@H](O[C@@H]3O[C@H](CO)[C@@H](O[C@@H]4O[C@H](CO)[C@@H](O)[C@H](O)[C@H]4O)[C@H](O)[C@H]3O)[C@H](O)[C@H]2O)[C@H](O)[C@H]1O)[C@H](O)[C@@H](O)CO

>  <UNIT_SPEC>
s⁻¹

>  <kcat>
0.00

$$$$
>  <ENTRY_SMILES>
OC[C@@H](O)[C@@H](O[C@@H]1O[C@H](CO)[C@@H](O[C@@H]2O[C@H](CO)[C@@H](O)[C@H](O)[C@H]2O)[C@H](O)[C@H]1O)[C@H](O)[C@@H](O)CO

>  <UNIT_SPEC>
s⁻¹

>  <kcat>
0

$$$$

[ask] Any idea what kcat was measured for "OC[C@@H](O)[C@@H](O[C@@H]1O[C@H](CO)[C@@H](O[C@@H]2O[C@H](CO)[C@@H](O[C@@H]3O[C@H](CO)[C@@H](O[C@@H]4O[C@H](CO)[C@@H](O[C@@H]5O[C@H](CO)[C@@H](O)[C@H](O)[C@H]5O)[C@H](O)[C@H]4O)[C@H](O)[C@H]3O)[C@H](O)[C@H]2O)[C@H](O)[C@H]1O)[C@H](O)[C@@H](O)CO" ?
[reply] 0.15
